# experimental details: blood-stage malaria parasite viability loss – strain 3D7, DAPI fluorescence, 100 nL, primary screen (AID 1184);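 note: parasites grown inside human red blood cells in medium with human serum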
# experimental conditions: P. falciparum 3D7 growth, 3 d, higher = more signal
Assign class by z-score: not lower than -2 means MET; lower than -2 means NOT MET.

Q: Identify whether the reported z-score of the following molecule is -2 or greater: "COC(=O)[C@@]1(Cc2ccc(OC)cc2)[C@H]2c3cc(C(=O)N(C)C)n(Cc4cc(F)c(F)c(F)c4)c3C[C@H]2CN1C(=O)c1ccccc1"
Result: MET

Q: One more molecule: "COC(=O)[C@@]1(Cc2ccc(OC)cc2)[C@H]2c3cc(C(=O)N(C)C)n(Cc4cc(C)n(C)n4)c3C[C@H]2CN1C(=O)c1ccccc1"
Result: MET

Q: What would you report for "Cc1ccc(-c2cccc(=O)o2)cc1" ?
Result: MET

Q: Thanks! And "COCC(=C=CC[C@@H](O)c1ccccc1OCCO)C[C@@H](O)COCc1ccccc1" ?
Result: NOT MET

Q: Also, "C=C(/C(=C/C[C@@H](OC(C)=O)c1ccccc1OCCO)c1cnc2ccccc2c1)C(C)C" please.
Result: NOT MET

Q: Entry to check: "O=[N+]([O-])c1ccc(C[n+]2ccc(-c3ccc(CO)cc3)cc2)o1"
Result: MET

Q: Same read-out for "C[N+](C)(C)CCCCCCNC(=O)[C@@H]1C[C@@H]2C(=O)NCC(=O)N2[C@@H]1c1ccc(O)cc1" ?
Result: MET

Q: And the next one, "CC(C)N1C(=O)c2ccccc2[C@](C)(C(=O)O)[C@@H]1c1ccc(CO)cc1" ?
Result: MET

====

# experimental details: compound effects on differentiated 3T3-L1 adipocyte viability – cell-based, 3T3-L1 adipocytes, calcein-AM fluorescence, 48 h, basal, profiling panel (AID 1163); note: test concentration not given here
# experimental conditions: 3T3-L1 adipocytes viability, higher = more signal
readout name: z-score
// print number alone

Q: Dear colleague, I am looking for the recorded z-score of the following compound: CC(C)=CCCC(C)=CC(O)C1C=CC2C(=O)N(c3ccccc3)C(=O)C2N1Nc1ccc([N+](=O)[O-])cc1 (centres undefined)
Result: 0.701

Q: What about "CCOC(=O)C1=CC[C@@H](c2cccc(Br)c2)N(S(=O)(=O)c2ccc(C)cc2)[C@H]1c1ccc([N+](=O)[O-])cc1" ?
Result: -0.349

Q: Also "C=C(C(=O)CC[C@H](OC(=O)c1cccnc1)c1ccc(OCCO)cc1)C(C)C" ?
Result: 0.165

Q: # iterate: "CO[C@H]1O[C@H](CO)[C@@H](OC(=O)c2ccc(Br)cc2)[C@@H]2OC(=O)[C@H](Cc3cccc(Br)c3)C/C=C/C[C@@H](Cc3cccc(Br)c3)C(=O)O[C@@H]12"
Result: 1.09

====

# System: Chordin-like protein 2 (CHRDL2)
# experimental details: compounds binding chordin-like 2 – biochemical, small-molecule microarray, 635 nm fluorescence, primary screen (AID 1126);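 note: printed compound slides probed with Chrdl2 protein at 4 µg/mL for 1 h at 4 C; score merges 667 nm emission intensity with signal to noise over three replicate slides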
# experimental conditions: fluorescence 635 nm, higher = more signal
readout name: composite z-score
Give the figure only, with no unit attached.

Q: Lookup: composite z-score / Chordin-like protein 2 (CHRDL2) / CN1C(=O)C2C=CC(C(O)c3ccc(F)cc3)N(N3CCCCC3)C2C1=O (centres undefined)
Result: -1.42

Q: Now consider "CC(C)(C)OC(=O)CC[C@]1(C(=O)N2CCCCC2)N=C(c2ccc(OCCCO)cc2)O[C@H]1c1ccccc1CN=[N+]=[N-]" .
Result: 0.388

Q: Follow-up entry: "C=C(COC)C(=O)CC[C@H](OC(=O)c1ccccc1-c1ccccc1C(=O)O)c1ccc(OCCO)cc1"
Result: 0.498

Q: # repeat for "COc1ccc(CCNC(=O)[C@@H]2c3ccccc3C(=O)N(Cc3ccccc3)[C@H]2c2ccc(CO)cc2)cc1"
Result: 0.156

Q: Follow-up entry: COC(=O)c1ccc(OC)c(/C=C\CC(CCc2ccccc2)OC(C)=O)c1 (centres undefined)
Result: 0.204

Q: Next compound up: "C[N+](C)(C)CCCCCCNC(=O)[C@@H]1C[C@@H]2C(=O)NCC(=O)N2[C@@H]1c1cccc(OCCO)c1"
Result: 1.31

Q: Item: "C[N+](C)(C)CCCC[C@@H]1NC(=O)[C@@H]2C[C@H](C(=O)NCCCCCNC(=O)CS)[C@H](c3cccc(OCCO)c3)N2C1=O"
Result: 0.361

Q: Next compound: C[C@]12C(=O)N(CCCO)[C@@H]3C(=O)N(c4ccc(Cl)cc4)CC=CC31O[C@@H]1/C=C\CCCOC(=O)C12 (some centres undefined)
Result: -1.38

Q: And then "COC(=O)[C@@]1(Cc2ccccc2)[C@H]2c3cc(C(=O)N4CCCC4)n(Cc4ccccc4)c3C[C@H]2CN1C(=O)c1ccccc1" , what is it?
Result: -0.883

Q: What do you have for "[N-]=[N+]=Nc1ccccc1[C@@H]1OC(c2ccc(OCCCO)cc2)=N[C@]1(CCS(=O)(=O)c1ccccc1)C(=O)NCc1ccccc1" ?
Result: -0.612

Q: Also, "CO[C@H]1O[C@H](CO)[C@@H](OC(=O)Nc2cccc(F)c2)[C@H](OC(=O)Nc2ccc3c(c2)OCO3)[C@H]1OC(=O)Nc1ccc2c(c1)OCO2" please.
Result: 0.163

Q: Lookup "[N-]=[N+]=Nc1ccccc1C[C@]1(C(=O)NCCN2CCOCC2)N=C(c2ccc(OCCCO)cc2)O[C@H]1c1ccccc1N=[N+]=[N-]"
Result: 0.415

Q: "CCCC=C(CCC)[C@@H](NS(=O)(=O)CC)c1ccccc1" , same question.
Result: -0.462

Q: Now the same for COC(=O)c1ccc(OC)c(/C=C\CC(CCc2ccccc2)OC(=O)c2ccncc2)c1 (centres undefined)
Result: 1.52

Q: // repeat for CC(C)CCC[C@@H](C)[C@H]1CC[C@@]2(C)C3=C(CC[C@]12C)[C@@]1(C)CC[C@H](OC(=O)c2ccc(N)cc2)C(C)(C)C1CC3 (some centres undefined) and report
Result: 0.456

Q: Now give it for "O=C(O)[C@]1(CCS(=O)(=O)c2ccccc2)N=C(c2ccc(OCCCO)cc2)O[C@@H]1c1ccccc1" too.
Result: -0.0616

Q: Next: Cc1ccccc1C(O)C1C=CC2C(=O)N(Cc3ccccc3)C(=O)C2N1n1cnnc1 (centres undefined)
Result: -0.317

Q: Again, but for "Cc1ccc(S[C@]2(C(=O)O)CC(=O)N(Cc3ccccc3C(F)(F)F)[C@@H]2c2ccc(CO)cc2)cc1"
Result: -1.6

Q: Proceed to "C=CCN1C(=O)[C@@]2(O[C@@H](CCn3cc([C@H](O)c4ccccc4)nn3)[C@H]([Si](C)(C)c3ccc(OC)cc3)[C@H]2C)c2cc(NC(=O)c3ccc(OC)cc3)ccc21"
Result: 0.271

Q: Next record, please: "COc1ccc([Si](C)(C)[C@H]2[C@H](CCO)O[C@@]3(C(=O)N(Cc4cccc(N5CCOC5=O)c4)c4ccccc43)[C@@H]2C)cc1"
Result: -0.0894

Q: Here is the next compound: "COc1ccc(C#Cc2ccc3c(c2)[C@]2(C(=O)N3)[C@H](C(N)=O)[C@H]3C(=O)O[C@H](c4ccccc4)[C@H](c4ccccc4)N3[C@@H]2c2ccc(O)cc2)cc1"
Result: -0.0806

Q: C=C(C)[C@@H]1CC=C(C(O)C2C=CC3C(=O)N(C4CCCCC4)C(=O)C3N2Nc2ccc(OC)cc2)CC1 (some centres undefined) ?
Result: 0.0811

Q: Would you kindly repeat that for "C=C(CCCC)/C(=C/C[C@@H](OC(=O)c1ccncc1)c1ccccc1OCCO)c1cc(C(=O)OC)ccc1OC" ?
Result: -0.0027

Q: // query: "COc1ccc(C(=O)Nc2ccc(CN3C(=O)[C@@]4(O[C@@H](CC(=O)N5Cc6ccccc6C[C@H]5CO)[C@H]([Si](C)(C)c5ccc(OC)cc5)[C@H]4C)c4ccccc43)cc2)cc1"
Result: 1.18

Q: Entry C=CCC(OC(C)=O)[C@@H]1[C@@H](N(Cc2cc3ccccc3o2)C(=O)Cc2ccc(OC)cc2)c2cc(OCCCO)ccc2N1C(=O)c1ccc(-c2ccccc2)cc1 (some centres undefined) please
Result: 0.224

Q: Another compound: "CC(C)[Si](C#C[Si](C(C)C)(C(C)C)C(C)C)(O[C@H](C)c1cn(Cc2cccc(Cl)c2)nn1)C(C)C"
Result: 0.226

Q: Consider next the compound "NCCCCCCNC(=O)[C@H]1C[C@H]2C(=O)N3CCC[C@H]3C(=O)N2[C@H]1c1ccc(O)cc1" in the same way.
Result: 0.777

Q: Try "COCCOC(=O)N1C(=O)[C@@]2(c3cc(C#CCC(C(=O)OC)C(=O)OC)ccc31)[C@H](C(=O)N1CCCCCCC1)[C@H]1C(=O)O[C@H](c3ccccc3)[C@H](c3ccccc3)N1[C@@H]2c1ccc(O)cc1" next.
Result: 1.29

Q: Moving on to "CCCC=C(CCC)[C@@H](NS(=O)(=O)c1cccc2cccnc12)c1ccc(C(=O)OC)cc1"
Result: 0.599
